# TARGET_OF_ASSAY: D3 dopamine receptors (Rattus norvegicus, UniProt P19020)
# Construct: Rat ventral striatum (nucleus accumbens and olfactory tubercles) was prepared in assay buffer; tissue Pel-Freez, Rogers, Ark; host or cells: rat ventral striatum (nucleus accumbens and olfactory tubercles) membranes
# Sequence (P19020 whole entry): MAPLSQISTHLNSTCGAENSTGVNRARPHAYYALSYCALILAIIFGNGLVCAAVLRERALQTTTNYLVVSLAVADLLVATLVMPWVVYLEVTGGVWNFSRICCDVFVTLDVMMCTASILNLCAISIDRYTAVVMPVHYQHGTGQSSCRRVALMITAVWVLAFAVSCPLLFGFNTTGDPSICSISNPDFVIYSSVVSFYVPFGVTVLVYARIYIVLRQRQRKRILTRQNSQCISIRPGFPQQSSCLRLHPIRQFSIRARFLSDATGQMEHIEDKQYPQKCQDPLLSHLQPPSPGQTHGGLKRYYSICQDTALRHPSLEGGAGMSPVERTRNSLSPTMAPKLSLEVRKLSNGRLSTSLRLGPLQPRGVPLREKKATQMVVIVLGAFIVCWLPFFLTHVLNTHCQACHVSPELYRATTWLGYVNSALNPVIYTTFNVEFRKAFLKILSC
# EXPERIMENT_SUMMARY: [3H]R(+)-7-OH-DPAT binding assay, rat ventral striatum membranes
# MEASUREMENT_SETUP: ratio of Ki values, rat brain
Answer label 0 if Selectivity D2-like/D3 is under 300, and label 1 if it is 300 or more.

CCCN(CCC1CCC(NS(=O)(=O)c2ccc(Cl)cc2)CC1)C1CCc2nc(N)sc2C1 (stereo in doubt) [Compound 46]; label 0
CCCN(CCC1CCC(NS(=O)(=O)c2cccnc2Cl)CC1)C1CCc2nc(N)sc2C1 (stereo in doubt) [Compound 52]; label 1
CCCN(CCC1CCC(NC(=O)c2cccc(-c3noc(CC)n3)c2)CC1)C1CCc2nc(N)sc2C1 (single isomer, unassigned) [Compound 37]; label 1
CCCN(CCC1CCC(NC(=O)c2cccc(-c3noc(C)n3)c2)CC1)C1CCc2nc(N)sc2C1 (stereo in doubt) [Compound 38]; label 1
CCCN(CCC1CCC(NC(=O)c2ccc(-c3noc(C)n3)cc2)CC1)C1CCc2nc(N)sc2C1 (stereo in doubt) [Compound 33]; label 1

Please look at the following compound next.
Lookup: Can CCCN(CCC1CCC(NS(=O)(=O)c2ccc(OC)cc2)CC1)C1CCc2nc(N)sc2C1 (stereo in doubt) [Compound 44] be said to have Selectivity D2-like/D3 at or above 300?
Found: label 0

====

# TARGET_OF_ASSAY: D3 dopamine receptors (Rattus norvegicus)
# Construct: Rat ventral striatum (nucleus accumbens and olfactory tubercles) was prepared in assay buffer; tissue Pel-Freez, Rogers, Ark; host or cells: rat ventral striatum (nucleus accumbens and olfactory tubercles) membranes
# EXPERIMENT_SUMMARY: [3H]R(+)-7-OH-DPAT binding assay, rat ventral striatum membranes
# MEASUREMENT_SETUP: ratio of Ki values, rat brain
METRIC_NAME: Selectivity D1-like/D3

Some solved cases for reference:
CCCN(CCC1CCC(NC(=O)c2ccc(-c3noc(CC)n3)cc2)CC1)C1CCc2nc(N)sc2C1 (stereo in doubt); 8,381
CCCN(CCC1CCC(NC(=O)c2ccc(-c3noc(C4CC4)n3)cc2)CC1)C1CCc2nc(N)sc2C1 (single isomer, unassigned); 3,245
CCCN(CCC1CCC(NS(=O)(=O)c2ccc(Cl)nc2)CC1)C1CCc2nc(N)sc2C1 (stereo in doubt); 12,933
CCCN(CCC1CCC(NC(=O)c2ccc(-c3noc(C)n3)cc2)CC1)C1CCc2nc(N)sc2C1 (stereo in doubt); 27,041

Selectivity D1-like/D3 recorded for this molecule, CCCN(CCC1CCC(NC(=O)c2cccc(-c3noc(CC)n3)c2)CC1)C1CCc2nc(N)sc2C1 (single isomer, unassigned) , is 3,448

Selectivity D1-like/D3 recorded for this molecule, CCCN(CCC1CCC(NC(=O)c2ccc(-c3noc(C(C)C)n3)cc2)CC1)C1CCc2nc(N)sc2C1 (single isomer, unassigned) , is 5,366

Selectivity D1-like/D3 recorded for this molecule, CCCN(CCC1CCC(NS(=O)(=O)c2ccc(OC)cc2)CC1)C1CCc2nc(N)sc2C1 (stereo in doubt) , is 27,487

Selectivity D1-like/D3 recorded for this molecule, CCCN(CCC1CCC(NS(=O)(=O)c2ccc(Cl)cc2)CC1)C1CCc2nc(N)sc2C1 (stereo in doubt) , is 8,754

====

# TARGET_OF_ASSAY: D3 dopamine receptors (Rattus norvegicus)
Cut-off 0.9 nM on Ki: below means Condition met, at or above means Condition not met.

The following compounds have reported results that may help.
CCCN(CCC1CCC(NS(=O)(=O)c2cccc(F)c2)CC1)C1CCc2nc(N)sc2C1 (stereo in doubt); Condition met
CCCN(CCC1CCC(NC(=O)c2cccc(-c3noc(C)n3)c2)CC1)C1CCc2nc(N)sc2C1 (stereo in doubt); Condition met
CCCN(CCC1CCC(NS(=O)(=O)c2cccnc2Cl)CC1)C1CCc2nc(N)sc2C1 (stereo in doubt); Condition met
CCCN(CCC1CCC(NC(=O)c2ccc(-c3noc(C4CC4)n3)cc2)CC1)C1CCc2nc(N)sc2C1 (single isomer, unassigned); Condition not met
CCCN(CCC1CCC(NS(=O)(=O)c2ccc(OC)cc2)CC1)C1CCc2nc(N)sc2C1 (stereo in doubt); Condition met
CCCN(CCC1CCC(NS(=O)(=O)c2cccc(Cl)c2)CC1)C1CCc2nc(N)sc2C1 (stereo in doubt); Condition not met
CCCN(CCC1CCC(NS(=O)(=O)c2ccc(Cl)cc2)CC1)C1CCc2nc(N)sc2C1 (stereo in doubt); Condition not met

Lookup: Determine if CCCN(CCC1CCC(NC(=O)c2cccc(-c3noc(CC)n3)c2)CC1)C1CCc2nc(N)sc2C1 (single isomer, unassigned) shows Ki strictly lower than 0.9 nM.
Found: Condition not met
